Biological target: T1, mouse AQP3 in cell lysate of HEK293T cells overexpressing mouse AQP3 and a myc-biotinylated tag (mouse, UniProt Q8R2N1 1-292, biotinylated tag (site not given))
T1 construct: also called AQP3 (cell lysate); not shown: myc-biotinylated tag
T1 sequence (looked up): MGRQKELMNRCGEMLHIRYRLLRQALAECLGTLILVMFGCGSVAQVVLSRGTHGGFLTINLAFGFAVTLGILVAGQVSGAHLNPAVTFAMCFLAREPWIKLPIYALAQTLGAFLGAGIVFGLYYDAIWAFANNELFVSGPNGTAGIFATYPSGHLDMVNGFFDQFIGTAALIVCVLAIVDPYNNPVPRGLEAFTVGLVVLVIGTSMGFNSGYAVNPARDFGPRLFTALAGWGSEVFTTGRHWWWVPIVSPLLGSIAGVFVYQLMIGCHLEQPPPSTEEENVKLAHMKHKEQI
Assay: ELISA on lysate of HEK293T cells overexpressing mouse AQP3 and a myc-biotinylated tag

binder	binding result
antibody F (antibody, mouse IgG2a, kappa, V domains shown, also called anti AQP3 mAb F) VH: QVQLKESGPELVKPGASVKISCKASGYTFTDYYINWVKQRPGQGLEWIGWIFPGSGSTYYNEKFKGKATLTVDKSSSTAYMLLSSLTSEDSAVYFCADYGSSYRYFDVWGAGTTVTVSS VL: DIVMTQSPAILSASPGEKVTMTCRASSSVSYMHWYQQKPGSSPKPWIYATSYLASGVPARFSGSGSGTSYSLTIGRVEAEDAATYYCQQWSSNPLTFGAGTKLELKR	binds
antibody K (antibody, mouse IgG2a, kappa, V domains shown, also called anti AQP3 mAb K) VH: QVQLKQSGAELVRPGTSVKVSCKASGYAFTNYLIEWVKQRPGQGLEWIGVINPGSGGTNYNEKFKGKATLTADKSSSTAYMQLSSLTSEDSAVYFCARWGFYYAMDYWGQGTSVTVSS VL: DIVMTQSPSSLSASLGERVSLTCRASQEISGYLSWLQQKPDGTIKRLIYAASTLDSGVPKRFSGSRSGSDYSLTISSLESEDFADYYCLQYASYPLTFGAGTKLEIKR	binds
